# credit: PubChem BioAssay (EPA / NIEHS)

- assayInfo: ATG_Sox_CIS: Attagene CIS-FACTORIAL HepG2 Assay for human SRY-box transcription factor (SOX) (AID 2282960)
- assayContext: HepG2 Attagene cis-factorial SOX reporter, mRNA; actives raise or lower the signal
Calls of active or inactive are those of the source. How the source made its calls: active means hit-call score of the fitted dose curve at least 0.9, where 1 is the maximum; inactive means score below 0.9.
Field 'call' accepts active, inactive

A selection of reference data follows.
N#Cc1cc([N+](=O)[O-])ccc1N    inactive
Nc1cc2c3c(c1)C(c1ccccc1)=N[C@@H](NC(=O)c1cccnc1)C(=O)N3CC2    inactive
C/C(=N\NC(=O)Nc1cc(F)cc(F)c1)c1ncccc1C(=O)O    inactive
O=[N+]([O-])c1cc(Cl)ccc1Cl    inactive
O=C(O)C(F)(F)C(F)(F)C(=O)O    inactive

Ask | What is the recorded call for this compound in the test? CC(C)(C)c1ccc(O)cc1
Reply | active

* * *

- assayInfo: CEETOX_H295R_CORTISOL: CeeTox H295R High-throughput Steroidogenesis Assay for Cortisol (AID 2283438);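 further: cortisol secreted into medium quantified by LC-MS/MS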
- assayContext: actives raise or lower the signal
- Method: CEETOX_H295R is a cell-based, multiplexed-readout assay that uses H295R, a human adrenal gland cell line, with measurements taken at 48 hours after chemical dosing in a 96-well plate.CEETOX_H295R_CORTISOL is one of 23 assay component(s) measured or calculated from the CEETOX_H295R assay. […] This assay endpoint, CEETOX_H295R_CORTISOL, was analyzed with bidirectional fitting relative to DMSO as the negative control and baseline of activity. […]
Active and inactive are the calls of the source. How the source made its calls: active means hit-call score of the fitted dose curve at least 0.9, where 1 is the maximum; inactive means score below 0.9.
Outcome field: choose from active, inactive

Ask | // param item: CC(=O)c1ccc(-c2ccccc2)cc1 ; yields the recorded call
Reply | inactive

Ask | Could you please tell me the result logged for CO/N=C(/C(=O)OC)c1ccccc1COc1ccccc1C in this assay?
Reply | active

Ask | Test call, this compound: Oc1ccc(I)cc1
Reply | inactive

Ask | Recorded test outcome, item CCOP(=S)(NC(C)C)Oc1ccccc1C(=O)OC(C)C (stereo not drawn)
Reply | inactive

Ask | Assay result, entry COP(N)(=S)OC — outcome?
Reply | inactive

Ask | Please indicate how the test categorized c1ccc(OP(Oc2ccccc2)Oc2ccccc2)cc1 .
Reply | inactive

Ask | Please share the test call associated with CCC(C)(C)c1ccc(O)cc1 .
Reply | inactive

Ask | Dear colleague, could you share the recorded outcome for O=P(Oc1ccccc1)(Oc1ccccc1)Oc1ccccc1 when you have a moment?
Reply | inactive

* * *

- assayInfo: APR_HepG2_MitoMembPot_72hr: Apredica 72-hour HepG2 Assay for Mitochondrial Membrane Potential (AID 2282917)
- assayContext: imaging, actives raise or lower the signal
Calls of active or inactive are those of the source. Rule for the calls: active = hit-call score of the fitted dose curve at least 0.9, where 1 is the maximum; inactive = score below 0.9.
measurementKind: AC50

The cases that follow already have their AC50 on record.
c1ccc2c(c1)Nc1ccccc1S2    123 µM (active)
O=P(Oc1ccccc1)(Oc1ccccc1)Oc1ccccc1    inactive
CCOS(=O)(=O)OCC    inactive
ClC(Cl)c1ccccc1    inactive
CC(C)(C)OOC(C)(C)C    inactive

Ask | For the molecule CCOC(=O)c1ccccc1C(=O)OCC , give its measured AC50 value.
Reply | inactive

Ask | Give recorded AC50. CCCN(CCC)c1c([N+](=O)[O-])cc(C(C)C)cc1[N+](=O)[O-]
Reply | 46.9 µM (active)

Ask | Indicate its recorded AC50; the molecule in question is O=[N+]([O-])c1ccccc1
Reply | inactive

Ask | Return value of AC50 for input [N-]=[N+]=[N-] , no commentary.
Reply | inactive

Ask | Consider the molecule CCCCCCCc1ccc(O)cc1 . State its measured AC50.
Reply | inactive

Ask | Entry CCCCc1ccccc1 needs its AC50 filled in; supply it.
Reply | inactive

Ask | Give AC50 for the following molecule: Nc1ccc2ccccc2c1
Reply | inactive

Ask | Quickly give me recorded AC50 for c1nc[nH]n1
Reply | inactive

Ask | Please supply the value of reported AC50 for the item CSC(C)(C)C=NO
Reply | inactive

Ask | Return the recorded AC50 value; entry: ClC(Cl)(Cl)c1ccccc1
Reply | inactive

Ask | Complete the entry with AC50 for c1ccc(OP(Oc2ccccc2)Oc2ccccc2)cc1
Reply | inactive

* * *

- assayInfo: ACEA_AR_antagonist_AUC_viability: ACEA Biosciences xCELLigence Real-Time Cell Analysis on Androgen Receptor Antagonism for Viability (AID 2283776);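 further: 22Rv1 human prostate cancer cells growing on impedance electrode plates; area under impedance growth curve at 80 h after dosing as viability; hits lower the growth signal relative to DMSO meaning cytotoxicity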
Records with an inconclusive call do not appear. The source made the active and inactive calls. How the source made its calls: active means hit-call score of the fitted dose curve at least 0.9, where 1 is the maximum; inconclusive means response in the unintended direction; inactive means score below 0.9.
Outcome (select one): class 1 (active), class 0 (inactive)

Please review the following examples before continuing.
O=c1ssc(Cl)c1Cl    class 0
O=[N+]([O-])c1ccc(Cl)c(Cl)c1    class 0
O=C(O)C1C(C(=O)O)C2(Cl)C(Cl)=C(Cl)C1(Cl)C2(Cl)Cl (stereo not given)    class 0
O=[N+]([O-])c1ccccc1    class 0
CCCCOCCOP(=O)(OCCOCCCC)OCCOCCCC    class 0
CCCCOCC1CO1 (stereo not given)    class 0
c1ccc2c(c1)Nc1ccccc1S2    class 1
CCC(C)(C)c1ccc(O)cc1    class 1
COC(N)=O    class 0
CO/N=C(/C(=O)OC)c1ccccc1COc1ccccc1C    class 0

Ask | // outcome(item) with item = Cc1ccc(N)cc1N
Reply | class 0

Ask | State the result this test recorded for CCCCc1ccc(O)cc1 .
Reply | class 1

* * *

- Read-out: Plasminogen activator inhibitor-1 (PAI1), SERPINE1 (gene 5054)
- assayInfo: BSK_hDFCGF_PAI1: BioMAP Diversity Plus: hDFCGF Assay for Plasminogen activator inhibitor-1 (PAI1) Biomarker Activity (AID 2283066)
- assayContext: primary human foreskin fibroblasts; actives raise or lower the signal
- Description: BSK_hDFCGF is a cell-based, multiplexed-readout assay that uses foreskin fibroblast, a human skin primary cell, with measurements taken at 24 hours after chemical dosing in a 96-well plate.BSK_hDFCGF_PAI1 is an assay component measured in the BSK_hDFCGF assay. It measures PAI-1 antibody related to regulation of gene expression using ELISA technology.Data from the assay component BSK_hDFCGF_PAI1 was analyzed into 1 assay endpoint. […]
The source made the active and inactive calls. How the source made its calls: active means hit-call score of the fitted dose curve at least 0.9, where 1 is the maximum; inactive means score below 0.9.
Thanks in advance; please answer with one of these: active, inactive

Use the examples below as a reference point.
Cc1ccc(O)cc1C    inactive
Cc1ccc2c(c1N)C(=O)c1ccccc1C2=O    inactive
Nc1cc2c3c(c1)C(c1ccccc1)=N[C@@H](NC(=O)c1cccnc1)C(=O)N3CC2    active
CCCCN(CCCC)SN(C)C(=O)Oc1cccc2c1OC(C)(C)C2    active
C=CC(=O)OCC(F)(F)C(F)F    inactive

Ask | State the result this test recorded for O=C(O)C(F)(F)OC(F)(F)C(F)(F)OC(F)(F)C(=O)O .
Reply | inactive

Ask | Please share the test call associated with CC(Cl)(Cl)C(=O)O .
Reply | inactive

Ask | Which result was noted for this molecule in the test: CCOS(=O)(=O)OCC
Reply | inactive

Ask | In this assay, the call recorded for O=P(OCC(Br)CBr)(OCC(Br)CBr)OCC(Br)CBr (centres undefined) was what?
Reply | inactive

Ask | Hello, I am checking results. What call was entered for Nc1ccc2ccccc2c1 ?
Reply | inactive

Ask | Outcome logged for NC(=O)C(F)(F)C(F)(F)F in this assay:
Reply | inactive

Ask | Field: outcome | Entry: CC(C)(C)c1ccc(O)cc1
Reply | inactive

Ask | Please indicate how the test categorized CCOP(=S)(OCC)SCSc1ccc(Cl)cc1 .
Reply | inactive

Ask | Answer briefly: the call reported for CC(Cc1ccc(OCC(=O)O)cc1)NCC(O)c1csc(C(F)(F)F)n1 (centres undefined) in this assay.
Reply | inactive

Ask | Could you please tell me the result logged for N#Cc1cc([N+](=O)[O-])ccc1N in this assay?
Reply | inactive

Ask | I would be grateful if you could indicate the recorded call for CN(C)C(=O)Cl .
Reply | inactive

* * *

- targetOrTestSystem: human Norepinephrine Transporter (NET), SLC6A2 (gene 6530)
- assayInfo: NVS_TR_hNET: NovaScreen (NVS) Transporter Assay for human Norepinephrine Transporter (NET) (AID 2283377);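 further: cell-free membrane protein extracted from CHO cells expressing human NET; displacement of radioligand from human NET seen as loss of scintillation signal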
Results filed as inconclusive are left out. The source made the active and inactive calls. The calls were made as follows: active = hit-call score of the fitted dose curve at least 0.9, where 1 is the maximum; inconclusive = response in the unintended direction; inactive = score below 0.9.
measurementKind: AC50

c1ccc2c(c1)Nc1ccccc1S2    6.58 µM (active)
Oc1ccc(I)cc1    19.8 µM (active)

Ask | Give the measured AC50 for Nc1ccc2ccccc2c1
Reply | 5.64 µM (active)

Ask | Recall and state the measured AC50 for CC(C)Nc1ccc(Nc2ccccc2)cc1 .
Reply | 2.93 µM (active)

Ask | Return the recorded AC50 value; entry: N#Cc1c(-c2ccc(Cl)cc2)[nH]c(C(F)(F)F)c1Br
Reply | 16.4 µM (active)

* * *

- targetOrTestSystem: Estrogen receptor (Homo sapiens) (UniProt P03372)
- Sequence (P03372 whole entry, looked up): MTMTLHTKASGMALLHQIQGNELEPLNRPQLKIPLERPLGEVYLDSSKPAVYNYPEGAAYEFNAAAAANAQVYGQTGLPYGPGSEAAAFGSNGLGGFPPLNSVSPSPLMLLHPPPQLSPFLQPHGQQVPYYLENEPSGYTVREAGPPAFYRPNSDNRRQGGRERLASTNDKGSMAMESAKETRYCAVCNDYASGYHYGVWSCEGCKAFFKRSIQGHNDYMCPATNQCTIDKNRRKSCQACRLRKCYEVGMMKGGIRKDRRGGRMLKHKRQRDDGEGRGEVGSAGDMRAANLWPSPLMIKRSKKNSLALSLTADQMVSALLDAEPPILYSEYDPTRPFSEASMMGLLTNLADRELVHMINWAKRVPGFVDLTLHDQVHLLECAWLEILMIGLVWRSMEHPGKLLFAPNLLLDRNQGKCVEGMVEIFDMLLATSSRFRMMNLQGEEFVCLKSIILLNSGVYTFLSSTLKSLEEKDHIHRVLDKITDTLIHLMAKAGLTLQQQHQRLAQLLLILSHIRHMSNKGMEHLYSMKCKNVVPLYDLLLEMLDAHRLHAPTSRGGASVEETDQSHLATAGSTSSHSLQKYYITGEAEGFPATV
- assayInfo: OT_ERa_GFPERaERE_0120: Odyssey Thera (OT) 2-hour HeLa Transcription Induction Assay for Estrogen Receptor (AID 2283382)
The source made the active and inactive calls. How the source made its calls: active means hit-call score of the fitted dose curve at least 0.9, where 1 is the maximum; inconclusive means response in the unintended direction; inactive means score below 0.9.
Write down one outcome, taken from active, inactive

These recorded examples may help you get a feel for the data.
CN(C)C(=O)Cl    inactive
Nc1cc2c3c(c1)C(c1ccccc1)=N[C@@H](NC(=O)c1cccnc1)C(=O)N3CC2    inactive
Cc1ccc(O)cc1C    inactive
CO/N=C(/C(=O)OC)c1ccccc1COc1ccccc1C    active
ClC1=C(Cl)C2(Cl)C3C(Cl)C(Cl)CC3C1(Cl)C2(Cl)Cl (centres undefined)    inactive
CCOS(=O)(=O)OCC    inactive

Ask | So what was the verdict on CC(Cc1ccc(OCC(=O)O)cc1)NCC(O)c1csc(C(F)(F)F)n1 (centres undefined) in this test?
Reply | inactive

Ask | Call for entry CC1(C)CN=C(NN=C(/C=C/c2ccc(C(F)(F)F)cc2)/C=C/c2ccc(C(F)(F)F)cc2)NC1 :
Reply | inactive

Ask | // param item: CCCCC(CC)COP(=O)(Oc1ccccc1)Oc1ccccc1 (centres undefined) ; yields the recorded call
Reply | inactive

Ask | So what was the verdict on CCNc1nc(Cl)nc(NC(C)(C)C)n1 in this test?
Reply | inactive
